System: Danio rerio larvae (5 dpf)
protocol notes: difference in excitability vs DMSO (percentage points); higher = more excitable than DMSO
test conditions: 10 µM; exposure time 6 h
quantity: difference in excitability
Could you keep your reply to the number by itself?

Completed entries (count: 5):
Request: Any idea what difference in excitability was measured for COCCCOc1cc(C[C@@H](C[C@H](N)[C@@H](O)C[C@H](C(=O)NCC(C)(C)C(N)=O)C(C)C)C(C)C)ccc1OC [Aliskiren (hemifumarate)] ?
Result: 16.6

Request: Any idea what difference in excitability was measured for `CO[C@H]1/C=C/O[C@@]2(C)Oc3c(C)c(O)c4c(c3C2=O)C2=NC3(CCN(CC(C)C)CC3)NC2=C(NC(=O)/C(C)=C\C=C\[C@H](C)[C@H](O)[C@@H](C)[C@@H](O)[C@@H](C)[C@H](OC(C)=O)[C@@H]1C)C4=O` ?
Result: 10.6

Request: Any idea what difference in excitability was measured for `Nc1ccc(S(=O)(=O)Nc2ncccn2)cc1` ?
Result: 11.9

Request: Any idea what difference in excitability was measured for COc1ccc2[nH]c([S+]([O-])Cc3ncc(C)c(OC)c3C)nc2c1 (configuration not stated) ?
Result: 14.6

Request: Any idea what difference in excitability was measured for `OCCN(CCO)c1nc(N2CCCCC2)c2nc(N(CCO)CCO)nc(N3CCCCC3)c2n1` ?
Result: 1.25

Others:
Request: Any idea what difference in excitability was measured for CC1(C)S[C@@H]2[C@H](NC(=O)[C@H](N)c3ccc(O)cc3)C(=O)N2[C@H]1C(=O)O [Amoxicillin (hydrate)] ?
Result: 2.37

Request: Any idea what difference in excitability was measured for `CCc1cc2c(cc1CC)CC(NC[C@H](O)c1ccc(O)c3[nH]c(=O)ccc13)C2` ?
Result: -0.786
